# Assay System: human neutrophil elastase (HNE) (Homo sapiens, UniProt P08246)
# Sequence (P08246 30-247): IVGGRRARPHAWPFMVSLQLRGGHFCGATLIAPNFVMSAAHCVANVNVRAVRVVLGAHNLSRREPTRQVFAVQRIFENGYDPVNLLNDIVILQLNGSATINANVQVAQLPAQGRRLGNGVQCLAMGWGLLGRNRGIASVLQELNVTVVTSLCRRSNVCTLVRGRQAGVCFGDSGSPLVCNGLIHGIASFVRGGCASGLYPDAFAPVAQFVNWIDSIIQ
# Experiment: chromogenic elastase assay (MeOSuc-AAPV-pNA, […] nm), dose-response
Readout Label: IC50

* O=C(/C=C/c1ccc(O)c(O)c1)O[C@@H]1C[C@](O)(C(=O)O)C[C@@H](O)[C@H]1O [Cha, chlorogenic acid] | 203 µM
* O=C(/C=C/c1ccc(O)c(O)c1)O[C@@H]1C[C@](O)(C(=O)O)C[C@@H](OC(=O)/C=C/c2ccc(O)c(O)c2)[C@H]1O [Iso A, isochlorogenic acid A] | 171 µM
